Provide the reported melting point of each item.

What value of measured melting point is listed for Fc1ccc2c(c1)NCc1ccccc1O2 ?
94 °C

Returns the measured melting point for the input compound. Input: CC(=O)NC(Cc1ccc(Cl)c(Cl)c1)C(=O)CCc1cc(C(F)(F)F)cc(C(F)(F)F)c1 (stereo unspecified)
124 to 126 °C

Request the reported melting point associated with Cc1ccc(NC(=O)c2cc(Cl)ccc2NCC2CCN(C3CCSC3)CC2)nc1 (stereo unspecified)
151 to 153 °C

Consider the compound COc1cc2ncnc(N3CCC(C(C)CN4CCC(C)NS4(=O)=O)CC3)c2cc1OC (stereo unspecified) and give its measured melting point.
172 to 175 °C

Bench note: what melting point did COC(=O)C(OC)Oc1ccc(C2CCN(c3ccncc3)CC2)cc1 (stereo unspecified) show?
127 to 129 °C

Consider the compound shown here: O=C(Nc1ccc(-n2nc(C(F)(F)F)cc2C2CC2)nc1)c1ccc2[nH]nnc2c1 What is its recorded melting point?
236 to 238 °C

Name the reported melting point value associated with the compound CCCC1CCC(C2CC3(C2)CC(C(F)(F)Oc2cc(F)c(F)c(F)c2)C3)CC1 (stereo unspecified)
43 °C

Endpoint output: melting point of Cc1nc(NC(=O)c2cnn3c(C(F)(F)F)cc(-c4ccc(C(F)(F)F)c(Cl)c4)nc23)sc1S(N)(=O)=O . Value?
299 °C

Name the recorded melting point for COc1ccc(CNc2cc3c(Nc4ccc5c(cnn5Cc5cccc(F)c5)c4)ncnc3cn2)cc1 .
196 to 198 °C

Need melting point of CCOC(=O)c1ccc(C=O)cn1 , thanks.
59 °C

I would be grateful if you could share the reported melting point for O=C1CC2CCc3cc(-n4ccc(=O)cc4)ccc3C2=NN1 (stereo unspecified) .
> 300 °C

Any idea what its melting point is? The compound is CNC(=O)c1cc(C(=O)OCCO)cc(C(=O)NC)n1
214 to 215 °C

I am curious: what melting point value has been reported for COC(=O)c1cccc(OC(F)(F)C(F)Br)c1 (stereo unspecified) ?
88 to 90 °C

May I ask what melting point has been recorded for O=C1c2ccccc2N(Cc2ccccc2)C2=NCCN12 ?
203 to 205 °C

What does the record list as melting point for CCOC(=O)c1cnc2c3cc(NS(C)(=O)=O)ccc3ncn2c1=O ?
310 to 312 °C

What value of measured melting point is listed for CNC(=O)C(CCN(C)C)(c1ccccc1)C(O)c1ccccc1 (stereo unspecified) ?
107 to 115 °C

If you can, please state the reported melting point value of CCC(=NO)c1ccc(Cl)cc1 .
56 to 57.5 °C

I have this compound here, Nc1ncc(-c2ccncn2)c(-c2ccco2)n1 , and I need its recorded melting point.
222 °C

Look at this compound and give its reported melting point. CC(O)Cc1cccc(Nc2nccc(-c3sc(N)nc3-c3ccccc3)n2)c1 (stereo unspecified)
219 to 220 °C

Value lookup for melting point; key = CC(=O)Nc1cscc1C(=O)O
206 °C

What value of melting point has been recorded for this entry: C#CCN1C(=O)COc2cc(F)c([N+](=O)[O-])cc21
105 to 107 °C

Could you tell me which melting point is on file for COc1ccc2c(c1)C=CC(C#N)N2C(=O)c1ccccc1 (stereo unspecified) ?
124 °C

Give its melting point value. Item: O=c1[nH]c2sc3c(F)cccc3c2[nH]c1=O
> 35 °C

Please look up its melting point: COC(=O)c1ccc(Cn2c(C(=O)Nc3nc(-c4cc(OC)c(Cl)cc4OC)c(CCC4CCCCC4)s3)cc3cc(C)cc(C)c32)cc1
199 to 200 °C

Any idea what melting point was measured for Sc1ccc(-c2nc3cnccc3[nH]2)cc1 ?
230 °C

Fill in: melting point of COc1ccc([C@H]2c3[nH]c4ccccc4c3C[C@H]3C(=O)N(CCc4ccccn4)C(=O)N23)cc1 (relative stereo) is ___
140 to 143 °C

----------
Kindly state melting point for each of the entries shown.

If you can, please state the reported melting point value of CCCCC(=O)c1oc(=O)[nH]c1C .
92 to 94 °C

Report melting point for Cc1nc(C(C)C)c(Sc2cc(Cl)cc(Cl)c2)n1C please.
95 to 96 °C

Can you share its melting point? I mean this molecule: O=S(=O)(OCC1OC2CC(CC(OS(=O)(=O)c3ccc(Br)cc3)C2)O1)c1ccc(Br)cc1 (centres undefined)
128 °C

So what does the record say about melting point for CC[C@@H](c1ccccc1)N(Cc1cccc(C(=O)O)c1)S(=O)(=O)c1ccc(Cl)cc1 ?
65 to 67 °C

----------
property-measured: melting point

If you can, please state the reported melting point value of COCCNC1CCN(c2ccc(NC(=O)c3cnn(-c4ccc(Cl)cc4)c3C)cc2C#N)CC1 .
194 °C

Returns the measured melting point for the input molecule. Input: CC(C)(Oc1ccc(CCCc2cc(-c3ccccc3)no2)cc1)C(=O)O
66 to 70 °C

Reported melting point for Cn1cnnc1C(c1ccc(Cl)cc1)c1ccc2c(c1)c(-c1cccc(Cl)c1)cc(=O)n2C (stereo not drawn) : what is it?
153 °C

Which melting point value is on record for COc1ccc(CN(C)CCSc2ccc(NC(=O)c3cccc4c(=O)c5ccccc5[nH]c34)cc2)cc1OC ?
113 °C

What measured melting point goes with COc1cccc2c1C=C(C(=O)O)C(CC(F)(F)F)O2 (stereo not drawn) ?
204 to 207 °C

melting point for C=CCOC(=O)c1ccc(COC(=O)c2ccc(OC(C)C)c(C(C)(C)C)c2)cc1 ?
63 to 64 °C

# lookup: melting point of COc1ccc(C)cc1NC(=O)Nc1ccc(N2CCN(Cc3ccccc3)CC2)cc1
184 to 186 °C

Request the reported melting point associated with CC(C)(C)OC(=O)c1ccc([N+](=O)[O-])c(CBr)c1
61 to 65 °C

Which melting point value is on record for CCOC(=O)CCCCn1cnc2ccncc21 ?
45 to 47 °C

# input molecule: CCN(CC)c1ccc(NC(=O)c2ccc(C)c(Nc3nccc(-c4cccnc4)n3)c2)cc1C(F)(F)F ; wanted: its melting point
128 to 131 °C

Given the entry CC(=O)OCC1COc2c(cc(Cl)cc2[N+](=O)[O-])N1 (stereo not drawn) , report its measured melting point.
76 to 84 °C

Requested read-out: melting point. Entry: CCOc1ccc2ccc(F)c(F)c2c1F
96.5 to 98.5 °C

State the recorded melting point for this entry: COC(=O)c1cc(-c2ccc(OC)cc2)nn(Cc2ccc([N+](=O)[O-])cc2)c1=O
215 to 217 °C

For CC(Cl)COC(C)c1ccc(O)cc1 (single isomer, unassigned; (+)) , what is its reported melting point?
50 to 51 °C

Given the entry OC1(c2ccc(F)cc2)CCC2(CC1)OCCO2 , report its measured melting point.
133 to 135 °C

Which melting point is reported for this molecule? CCCCCNC(=O)CC(=O)O
67.5 to 68.5 °C

What value of melting point has been reported for the following molecule? CCOC(=O)C(Cc1ccc(O)cc1)Oc1ccc(Cl)cc1 (stereo not drawn)
90 to 93 °C

Quick one: melting point for COc1cc(Nc2nccc(-c3ccc(NC4CCCCC4O)nc3)n2)cc(OC)c1OC (stereo not drawn) ?
147 to 148 °C

# get_value(readout='melting point', item= O=C(Cn1c(-c2ccc(Cl)cc2)nc2cccnc21)NC1CCCC1 )
260 to 261 °C

Which melting point reading was recorded for the molecule CC(=O)c1cc(-c2ccc(S(C)(=O)=O)cc2)n(-c2ccc(F)cc2)n1 ?
207 to 209 °C

Param item = CCOC(=O)N1CCc2cc(OC)c(OC)cc2CC1 ; retrieve measured melting point.
91 to 93 °C

// returns reported melting point for input C/C(=C\c1ccc(C(=O)O)cc1)c1ccc2c(c1)CCCCC2
198 °C

# melting point lookup, item CS(=O)(=O)c1ccc(-n2nc(C(F)(F)F)cc2-c2ccc(-c3ccco3)c(Cl)c2)cc1
143 to 145 °C

----------
Can you tell me melting point for the items I'm about to list?

// returns reported melting point for input CC(C)Oc1ccc([N+](=O)[O-])cc1OCCN1C(=O)c2ccccc2C1=O
132 °C

Give its melting point value. Item: COc1cc(OC)cc(-c2ncoc2-c2ccc(OC)c(N)c2O)c1
152 to 154 °C

Dear colleague, I am looking for the recorded melting point of the following compound: CCOC(=O)NN=COC(N)CC (stereo unspecified)
100 °C

Look up melting point for this compound: COc1cc(/C=C/C(=O)NCCN2CCC(c3c[nH]c4ccccc34)CC2)ccc1O
115 to 135 °C

Quick check: melting point of CON=C(C(=O)OC)c1ccccc1COc1ccc2c(c1)OCC2=O ?
134 to 137 °C

What melting point value was documented for this compound, Cc1ccc2c(c1)CC(N1CCN(CCN3CCOC3=O)CC1)c1cc(Cl)ccc1S2 (stereo unspecified) ?
174 to 175 °C

Name the recorded melting point for CCCCN(CCCC)S(=O)(=O)c1cc(O)c(N=Nc2c(C)nn(-c3ccccc3)c2O)c2ccccc12 .
173 to 174 °C

Name the recorded melting point for CCCCc1nc2cc(C)c(C)cc2n1Cc1ccc(C(=O)O)cc1 .
220 °C

Fill in: melting point of Cc1cccc(CC(=O)O)c1OCCCc1cn(-c2ccc(C(F)(F)F)cn2)nc1C(C)(C)C is ___
86 to 87 °C

What does the record list as melting point for N#CC(Cc1ccc(Cl)cc1)c1c(Cl)cc(N2N=CCNC2=O)cc1Cl (stereo unspecified) ?
213 °C

May I ask what melting point has been recorded for COc1nc2ccccc2c(-c2ccccc2)c1C(=O)N(C)Cc1cc(C(F)(F)F)cc(C(F)(F)F)c1 ?
146 to 147 °C

May I ask what melting point has been recorded for CC(=O)NC[C@H]1CN(c2ccc(N3CCC(Cc4nnn[nH]4)CC3)c(F)c2)C(=O)O1 ?
164 to 166 °C

Need melting point of CC(C)(C)c1cc(=O)cc(C(C)(C)C)s1 , thanks.
97 to 98 °C

For the compound shown here, COc1ccc2cc(N3CCC4(CCN(C)CC4)CC3)ccc2c1 , give the reported melting point.
122 to 125 °C

May I ask what melting point has been recorded for O=C(O)C1OCC(O)C(O)C1O (stereo unspecified) ?
194 to 196 °C

Record request: melting point value, item O=C(COc1cc(-c2cccs2)nc2ccccc12)N1CCOCC1
198 °C

# lookup: melting point of CCCCN1CC(=O)N2[C@@H](c3ccc(N)cc3)c3[nH]c4ccccc4c3C[C@@H]2C1=O (relative stereo)
192 °C

I'd like to know its melting point. The compound in question is O=C(O)c1ccc(OCc2ccccc2OCc2ccccc2)cc1
177 to 179 °C

Can you look up the measured melting point of Cc1cc(-c2ccc(C(F)(F)F)cc2)nc(-c2cccc(-c3cccc(S(N)(=O)=O)c3)n2)c1 for me?
229 °C

Tell me the measured melting point of C[C@]12CC[C@H](O)CC1=CCC1C2CC[C@@]2(C)C1CC[C@H]2n1cc(-c2ccccc2)nn1 (stereo partly specified) , please.
234 to 236 °C

What value of melting point has been recorded for this entry: CC(C)(C)OC(=O)NCC(COS(C)(=O)=O)NC(=O)OC(C)(C)C (stereo unspecified)
94 to 96 °C

Which melting point value is on record for CC(=O)OCCOc1ncnc(NS(=O)(=O)c2ccc(C)cc2)c1C=O ?
130 to 144 °C

If you can, please state the reported melting point value of CCn1c(=O)c2cc(O)c(O)cc2c2cc(O)c(O)cc21 .
309 to 310 °C

I am curious: what melting point value has been reported for CCOCc1nc2c(N)nc3cc(-c4ccncc4)ccc3c2n1CC(C)(C)O ?
220 to 221 °C

Look at this compound and give its reported melting point. CCOC(=O)c1ccc(C(=O)c2ccc(N)cc2)cc1
125 °C

Query: melting point; subject: O=C(NC(=O)c1c(F)cccc1Cl)Nc1ccc(Cl)cn1
210 to 215 °C

Recorded melting point for C=CCOC(=O)C1=C(C)NC(C)=C(C(=O)OC(C)C)C1c1cccc([N+](=O)[O-])c1 (stereo unspecified) , please?
96 to 97 °C

Tell me the measured melting point of CC(C)(C)OC(=O)NCOc1ccccc1C(=O)OCC#N , please.
144 to 146 °C

What value of melting point has been recorded for this entry: COC(=O)c1ccc(Cc2cn(C)c3ccc(C=C(C)C(=O)O)cc23)c(OC)c1
182 to 183 °C

Given the entry CCCC(=NOCC)C1=C(O)CC(c2c(C)c(C)c(C)c3c2OCC3)CC1=O (stereo unspecified) , report its measured melting point.
108 °C

Which measured melting point value corresponds to Cc1c(Cl)n(C2OC(CO)C(O)C2O)c2cc(Cl)c(Cl)cc12 (stereo unspecified) ?
190 to 191 °C
